biological target: human orexin 1 receptor (Homo sapiens (Human)); test: Human orexin 1 receptor radioligand binding ([3H]-SB674042 competition); conditions: CHO cells stably expressing human orexin 1 receptor; [3H]-SB674042 4 nM final; read-out: OR-1 Ki
reported endpoint: Ki (nM)
Give bare numbers, in nM.

In the examples that follow, each entry is paired with its recorded Ki.
Cc1ccc(-n2nccn2)c(C(=O)N2CC[C@H]3CN(c4nc(C)cc(C)n4)[C@H]3C2)c1 [Example 26] = 52
Cc1cc(C)nc(N2C[C@@H]3CCN(C(=O)c4cc(F)ccc4-c4ccc(N(C)C)nc4)C[C@@H]32)n1 [Example 166] = 3840
Cc1cc(N2C[C@@H]3CCN(C(=O)c4c(F)cccc4-n4nccn4)C[C@@H]32)nc(N(C)C)n1 [Example 44] = 480

IN: Which Ki value is on record for Cc1nc(C(=O)N2CC3CN(c4cnc5ccccc5n4)C3C2)c(-c2ccccc2F)s1 (stereo not shown) [Example 51] ?
OUT: 432

* * *

For each entry below, report its pKi value.
molecular target: human orexin 1 receptor (Homo sapiens (Human), UniProt O43613); assay: Human orexin 1 receptor radioligand binding ([3H]-SB674042 competition); conditions: CHO cells stably expressing human orexin 1 receptor; [3H]-SB674042 4 nM final; read-out: OR-1 Ki
Sequence (O43613 whole entry): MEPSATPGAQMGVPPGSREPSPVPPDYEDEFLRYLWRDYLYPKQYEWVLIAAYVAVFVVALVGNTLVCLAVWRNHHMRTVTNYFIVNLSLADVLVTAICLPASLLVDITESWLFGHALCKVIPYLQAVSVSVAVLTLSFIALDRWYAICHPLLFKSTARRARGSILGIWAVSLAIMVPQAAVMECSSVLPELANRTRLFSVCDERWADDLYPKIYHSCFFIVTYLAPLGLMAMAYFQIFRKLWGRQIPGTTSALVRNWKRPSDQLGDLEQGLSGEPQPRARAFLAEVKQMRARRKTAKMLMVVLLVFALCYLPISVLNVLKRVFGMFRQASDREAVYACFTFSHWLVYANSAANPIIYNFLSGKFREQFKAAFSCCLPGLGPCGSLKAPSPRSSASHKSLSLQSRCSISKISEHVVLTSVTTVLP
Give bare numbers, as −log10 of the molar value.

In the examples that follow, each entry is paired with its recorded pKi.
COc1cccc(OC)c1C(=O)N1CCC2CN(c3nccc(-c4ccccc4)n3)C2C1 (stereo not shown) [Example 15] = 6.63
Cc1cc(C)nc(N2C[C@@H]3CCN(C(=O)c4cccc5c4-c4ccccc4C5=O)C[C@@H]32)n1 [Example 168] = 5.14
CCOc1ccc2ccccc2c1C(=O)N1CC2CN(c3nc(C)cc(C)n3)C2C1 (stereo not shown) [Example 65] = 5.97
COc1cnc(C)nc1C(=O)N1CC[C@H]2CN(c3nc(C)cc(C)n3)[C@H]2C1 [Example 136] = 5.00
COc1ccc(-n2nccn2)c(C(=O)N2CC[C@H]3CN(c4cc(C)ccn4)[C@H]3C2)c1 [Example 139] = 5.19
Cc1cc(C)nc(N2C[C@@H]3CCN(C(=O)c4cc(C)c(C)nc4-n4ccnn4)C[C@@H]32)n1 [Example 158] = 5.49

With those in mind, consider the next molecule.
IN: Which pKi value is on record for Cc1cc(N2C[C@@H]3CCN(C(=O)c4ccc(F)cc4-n4nccn4)C[C@@H]32)nc(N(C)C)n1 [Example 45] ?
OUT: 6.16

* * *

molecular target: human orexin-2 receptor (Homo sapiens (Human), UniProt O43614); assay: Human orexin 2 receptor radioligand binding ([3H]-EMPA competition); details: HEK293 cells stably expressing human orexin-2 receptor; [3H]-EMPA 5 nM final; read-out: OR-2 Ki
Sequence (O43614 whole entry): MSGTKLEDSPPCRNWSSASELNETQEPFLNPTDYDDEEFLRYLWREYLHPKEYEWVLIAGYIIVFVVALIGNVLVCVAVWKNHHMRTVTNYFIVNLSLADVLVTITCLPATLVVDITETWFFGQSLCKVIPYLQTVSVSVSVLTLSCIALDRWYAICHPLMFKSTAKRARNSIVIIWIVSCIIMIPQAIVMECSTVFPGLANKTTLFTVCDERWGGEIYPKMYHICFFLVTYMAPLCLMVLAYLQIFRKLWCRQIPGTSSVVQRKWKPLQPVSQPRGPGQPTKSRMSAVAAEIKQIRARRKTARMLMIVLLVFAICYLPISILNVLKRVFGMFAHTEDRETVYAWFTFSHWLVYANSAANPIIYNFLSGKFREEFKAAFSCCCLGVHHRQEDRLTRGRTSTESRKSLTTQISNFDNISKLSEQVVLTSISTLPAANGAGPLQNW
For each entry below, report its Ki value.
One number for each entry, in nM.

Cc1cc(C)nc(N2C[C@@H]3CCN(C(=O)c4ccccc4-c4cccs4)C[C@@H]32)n1 = 4
Cc1cc(C)nc(N2C[C@@H]3CCN(C(=O)c4c(C)noc4-c4cc(C)on4)C[C@@H]32)n1 = 1100
Cc1ccnc(N2CC3CN(C(=O)c4ccccc4-c4cccs4)CC32)n1 (stereo not drawn) = 188
Cc1cc(C)nc(N2C[C@@H]3CCN(C(=O)c4cccc(C)c4-n4nccn4)C[C@@H]32)n1 = 15
Cc1cc(C)nc(N2C[C@@H]3CCN(C(=O)c4ccccc4-c4ccco4)C[C@@H]32)n1 = 4
Cc1cnc(N2C[C@@H]3CCN(C(=O)c4ccc(F)cc4-n4nccn4)C[C@@H]32)cn1 = 420

Return reported Ki values for all items listed beneath this line.
1. O=C(c1ccccc1-c1ccco1)N1CC[C@H]2CN(c3cnc4ccccc4n3)[C@H]2C1
2. Cc1cncc(N2C[C@@H]3CCN(C(=O)c4ccccc4-n4nccn4)C[C@@H]32)n1

OUT:
20
115
